System: NCI-H226 lung
Assay: NCI tumour cell line growth inhibition, 48 h
Quick list: TGI per entry.

>>> test_result("CC1c2cc(c3c(c2O)CN([C@@H](C)C2CCCCC2)CO3)C(C)c2cc(c3c(c2O)CN([C@@H](C)C2CCCCC2)CO3)C(C)c2cc(c3c(c2O)CN([C@@H](C)C2CCCCC2)CO3)C(C)c2cc1c1c(c2O)CN([C@@H](C)C2CCCCC2)CO1 (some centres undefined)")
"2220 nM"

Reading of TGI for CCOC(=O)c1cc(C#N)[nH]c1-c1ccsc1 with NCI-H226 lung: > 100000 nM

Reading of TGI for CCOP(=O)(OCC)C(Nc1ccc(C(=O)O)cc1)c1ccc(C(Nc2ccc(C(=O)O)cc2)P(=O)(OCC)OCC)cc1 (centres undefined) with NCI-H226 lung: > 100000 nM

Reading of TGI for COC1=C(OC)[C@]2(OC)c3c(O)c(OC)c4c(c3O[C@@]23O[C@@H](c2ccccc2)CC=C3C1=O)[C@@H](O)C[C@H](c1ccccc1)O4 with NCI-H226 lung: 1460 nM

* * *

System: NCI-H226 lung
Experiment: NCI tumour cell line growth inhibition, 48 h; in the data active = GI50 below about 0.43 µM; inactive = the rest
Outcome field: choose from Y (active), N (inactive)

>>> discrete_label("N#Cc1nn(-c2cc(=O)[nH]c3ccc(Br)cc23)c(N)c1C#N")
"N"
>>> discrete_label("Cc1cc2nc(C(Cl)Cl)nc(-c3ccccc3)n2n1")
"N"
>>> discrete_label("Nc1ccccc1C#Cc1ccccc1C#Cc1cnccn1")
"N"
>>> discrete_label("Cc1ccc(NC(=O)c2cc3ccccc3cc2O)c(C)c1.Cc1ccc(NC(=O)c2cc3ccccc3cc2[O-])c(C)c1.[Ni+2]")
"N"

Problem: Recorded test call requested for C/C=C/C1=CN2C(=O)c3cc(OC4OC(C)C(NC)C(C)(O)C4O)c(C)c(O)c3N=C[C@@H]2C1 (stereo not given in full)
Solution: Y

Problem: Recorded test call requested for CN1CCN(CC(=O)N2c3cccc4cccc(c34)N(C(=O)CN3CCN(C)CC3)C2c2cn(-c3ccccc3)nc2-c2cccc([N+](=O)[O-])c2)CC1
Solution: N

Problem: Recorded test call requested for CC(C)(C)c1cc(-c2nc3c(F)c(F)c(F)c(F)c3[nH]2)cc(C(C)(C)C)c1O
Solution: N

Problem: Recorded test call requested for CCN(CC)CC[n+]1cc2cc(OC)c(OC)cc2c2ccc3cc4c(cc3c21)OCO4
Solution: N

Problem: Recorded test call requested for CCN1CCN(c2ccc(Nc3ncc4ccc5ncn(C(C)C)c5c4n3)nc2)CC1
Solution: Y

Problem: Recorded test call requested for Fc1cccc(-c2[nH]nc3nc(Nc4cccnc4)sc23)c1
Solution: N

* * *

System: HOP-18 NSCLC
Assay: NCI tumour cell line growth inhibition, 48 h
recorded endpoint: TGI

Some solved entries appear below for comparison.
>>> test_result("Cc1ccc(N2C(=O)C(Cl)=C(Cl)C2=O)cc1")
"36.3 µM"
>>> test_result("CC(C)c1cccc(C(C)C)c1NC(=O)CCC(=O)NN")
"> 100 µM"
>>> test_result("Nc1nc(=Nc2ccccc2)ss1")
"> 100 µM"

Then this compound:
Value of measured TGI for the entry C[CH2][Sn]([CH2]C)([O]C(=O)c1ccc(F)cc1)[O][Sn]([CH2]C)([CH2]C)[O]C(=O)c1ccc(F)cc1 : > 100 µM
